- test: Tmax in rat at 3 mg/kg, po
- Type: ADME, organism-based
- Design: dose 3 mg/kg, route oral
- condition_info: in vivo
reported_endpoint: Tmax (min)

[[record]]
molecule = "CC(C)C(NC(=O)Cn1c(-c2ccccc2)ncc(N)c1=O)C(=O)c1nnc(C(C)(C)C)o1 (racemic)"
reported_endpoint = "Tmax"
uom = "min"
recorded_number = 36


###

- tgt: Procathepsin L (Homo sapiens, UniProt P07711)
- Sequence (P07711 whole entry): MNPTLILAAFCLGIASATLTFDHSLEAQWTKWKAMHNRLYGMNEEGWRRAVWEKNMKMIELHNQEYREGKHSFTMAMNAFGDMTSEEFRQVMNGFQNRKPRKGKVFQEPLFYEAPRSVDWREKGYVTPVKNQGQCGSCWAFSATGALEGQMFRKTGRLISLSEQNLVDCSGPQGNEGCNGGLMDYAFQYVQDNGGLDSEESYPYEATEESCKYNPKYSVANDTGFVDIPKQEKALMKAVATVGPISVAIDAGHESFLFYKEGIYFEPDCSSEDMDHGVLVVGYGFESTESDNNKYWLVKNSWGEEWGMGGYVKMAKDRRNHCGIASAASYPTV
- test: Inhibition of human recombinant cathepsin L
pKi: −log10 of the molar value.
Reported pKi values for a set of compounds
reported_endpoint: pKi

[[record]]
structure_notation = "CCCC[C@H](NC(=O)CCc1ccccc1)C(=O)c1nnc(-c2ccco2)o1"
reported_endpoint = "pKi"
recorded_number = 4.00

[[record]]
structure_notation = "CCCC[C@H](NC(=O)OCC(C)C)C(=O)c1nnc(-c2ccco2)o1"
reported_endpoint = "pKi"
recorded_number = 4.85

[[record]]
structure_notation = "CC(C)C[C@H](NC(=O)C1CCNCC1)C(=O)N[C@@H](CCc1ccccc1)C(=O)c1nc2cc(S(N)(=O)=O)ccc2o1"
reported_endpoint = "pKi"
recorded_number = 6.66

[[record]]
structure_notation = "CC(C)C[C@H](NC(=O)C1CCNCC1)C(=O)N[C@@H](CCc1ccccc1)C(=O)c1nc2cc(C(C)(C)C)ccc2o1"
reported_endpoint = "pKi"
recorded_number = 7.15

[[record]]
structure_notation = "CCCC[C@H](NC(=O)OCc1ccccc1)C(=O)c1nnc(-c2ccco2)o1"
reported_endpoint = "pKi"
recorded_number = 4.55

[[record]]
structure_notation = "CC(C)C[C@H](NC(=O)C1CCNCC1)C(=O)N[C@@H](CCc1ccccc1)C(=O)c1nc2ccccc2o1"
reported_endpoint = "pKi"
recorded_number = 7.52

[[record]]
structure_notation = "CCCC[C@H](NC(=O)C(=O)[C@H](CC(C)C)NC(=O)OCc1ccccc1)C(=O)c1nnc(-c2ccco2)o1"
reported_endpoint = "pKi"
recorded_number = 9.00


Source of measurements: ChEMBL document CHEMBL1143211
